experiment: Agilent ZORBAX 300 SB-C18, 150 × 1 mm, 3.5 µm; A: water + 0.01% heptafluorobutyric acid; B: acetonitrile + 0.01% heptafluorobutyric acid; gradient (min/%B) 0/0 100/90; details: stereoisomer not certain
value kind: LC retention time (min)

Consider the following illustrative entries.
compound: C(=NNc1nncc2ccccc12)c1cccnc1
quantity unit: min
LC retention time: 8.37
--
compound: CC(C)C[NH2+]C(CC(=O)O)c1ccccc1 (configuration not stated)
quantity unit: min
LC retention time: 8.51
--
compound: CCC(C)C1(CC)C(=O)NC(=O)NC1=O (configuration not stated)
quantity unit: min
LC retention time: 9.71
--
compound: Cc1ccc(-c2cc(C)c(C)cc2C)nc1
quantity unit: min
LC retention time: 10.6
--
compound: COC(=O)c1c[nH]c2ccccc12
quantity unit: min
LC retention time: 10.9

[P] O=C(O)CN=C1NC2(CCCCC2)Cc2ccccc21
[Q] NC(=O)NCCCC(N)C(=O)O (configuration not stated)
Query: Select the item whose LC retention time value is smaller, choosing between P and Q . Please indicate the selected item by its label.
Response: Q

====

experiment: Agilent ZORBAX 300 SB-C18, 150 × 1 mm, 3.5 µm; A: water + 0.01% heptafluorobutyric acid; B: acetonitrile + 0.01% heptafluorobutyric acid; gradient (min/%B) 0/0 100/90; settings: stereoisomer not certain
value kind: LC retention time (min)

compound: Cc1cc(C(=O)O)nc2ccccc12
value kind: LC retention time
result: 5.5
//
compound: c1ccc(CCn2cccc2)cc1
value kind: LC retention time
result: 15.5
//
compound: CN(C)C(=O)c1ccc(N)cc1
value kind: LC retention time
result: 6.87
//
compound: COc1nc(N2CCCC2)[nH]c(=O)n1
value kind: LC retention time
result: 7.43

[1] CCCC(C)N (configuration not stated)
[2] O=C(NC(c1ccccc1)c1ccccc1)c1cccnc1
Query: Between 1 and 2 , which one has the lower reported LC retention time value? In your reply, give the label of the chosen option.
Response: 1

[P] CCN1C(=O)C2C(C)NC3(C(=O)Nc4ccccc43)C2C1=O (configuration not stated)
[Q] Cc1cccc(NC(=O)C(Cc2c[nH]c3ccccc23)NC(=O)C(c2ccccc2)c2ccccc2)c1C (configuration not stated)
[R] Cc1c(N)cccc1C(N)=O
Query: # desc sort on LC retention time across 3 compounds Response format: the labels, sorted as the prompt asks.
Response: Q, P, R

[P] NCc1ccccc1C(=O)O
[Q] c1ccc(-c2cc3cc4c(cc3[nH]2)OCO4)cc1
Query: Which record would sort first by descending LC retention time, P or Q ? When you have decided, please share the label of that item.
Response: Q
(Q: 15.1 min, P: 7 min)

[I] CCNCC(O)CC (configuration not stated)
[II] COc1ccc2nc(C)c3c(c2c1)OC(C)C3 (configuration not stated)
Query: Compare I and II and name the one whose reported LC retention time is smaller. Refer to your chosen item by its label in the answer.
Response: I
(I: 6.36 min, II: 9.25 min)

[P] NC1CCNCC1
[Q] CCCCCCCCCCC(N)=O
Query: Return label of the item with the larger LC retention time. Candidates: P , Q . Kindly give the label for the entry you pick.
Response: Q

[A] Cc1cccc(CN)c1
[B] COC(=O)Cn1c(=O)c(-c2ccccc2)nc2ccccc21
Query: Returns: the label, A or B , whose recorded LC retention time is the lower number. Write the label of whichever entry you select.
Response: A
(A: 7.91 min, B: 14.3 min)

[A] COC(=O)C(N)c1ccccc1 (configuration not stated)
[B] c1ccc(CCn2c(-c3ccccc3)csc2=Nc2ccccc2)cc1
Query: For the two items A and B , which reports the higher LC retention time value? Give the chosen item's label as your response.
Response: B

====

assay: Agilent ZORBAX 300 SB-C18, 150 × 1 mm, 3.5 µm; A: water + 0.01% heptafluorobutyric acid; B: acetonitrile + 0.01% heptafluorobutyric acid; gradient (min/%B) 0/0 100/90; details: stereoisomer not certain
value kind: LC retention time (min)

Example results:
compound: NC1CCCCC1
LC retention time [min]: 7.63
//
compound: O=C1NCC2(CCN(CCc3ccccc3)CC2)O1
LC retention time [min]: 8.72
//
compound: c1ccc2c(c1)CCc1c-2[nH]c2ccccc12
LC retention time [min]: 17.1

[P] CC(C)Cc1ccc(C(C)C(=O)NCCCn2c3ccccc3c3ccccc32)cc1 (configuration not stated)
[Q] CN(CCc1ccccn1)Cc1ccccn1
[R] Cc1cc(C(=O)N2CCCCC2)c2c(=O)n(CC(=O)Nc3ccccc3)c(=O)n(-c3ccccc3)c2n1
[S] c1ccnnc1
Query: Ordering criterion: LC retention time; begin with the maximum. The response must list the labels following the requested ordering.
Response: P, R, Q, S
(P: 20.1 min, R: 13.5 min, Q: 7.79 min, S: 4.58 min)

[I] CN(C)c1ccccn1
[II] COc1cccc(C(=O)N(c2ccccc2)C2CC(C)N(C(C)=O)c3ccccc32)c1 (configuration not stated)
Query: Which record would sort first by descending LC retention time, I or II ? Write down the label of the entry you select.
Response: II

[P] CC1CCCCN1C(=O)c1cncc(C(=O)N2CCCCC2C)c1 (configuration not stated)
[Q] CC1CCCN1 (configuration not stated)
Query: Between these two entries, P and Q , state which has the higher LC retention time. Label of pick, please.
Response: P
(P: 11.3 min, Q: 5.96 min)

====

test: Agilent ZORBAX 300 SB-C18, 150 × 1 mm, 3.5 µm; A: water + 0.01% heptafluorobutyric acid; B: acetonitrile + 0.01% heptafluorobutyric acid; gradient (min/%B) 0/0 100/90; details: stereoisomer not certain
value kind: LC retention time (min)

Below are worked cases with known answers.
compound: CC(CC(=O)Nc1ccc(Nc2ccccc2)cc1)=NNC(=O)Cc1ccccc1
LC retention time (min): 13.1
--
compound: OC12CC(Cc3cccnc31)c1ccccc12 (configuration not stated)
LC retention time (min): 8.39
--
compound: Cc1nc2ccccc2nc1COc1ccc2c(c1)OCO2
LC retention time (min): 14.1

[A] O=C(NN=Cc1ccccc1)c1ccncc1
[B] CNCCO
Query: // select label with min value of measured LC retention time from [ A , B ] Choose, then provide that item's label.
Response: B
(B: 2.61 min, A: 8.96 min)

[I] O=C(NN=Cc1ccncc1)c1ccccc1
[II] CC=CC=CC(=O)Nc1ccc(C=CC(=O)c2ccccc2)cc1
Query: Hi team, can someone confirm which has the larger LC retention time: I or II ? Thanks. Provide the label of your selected option as the answer.
Response: II

[a] OC1CCCc2c1[nH]c1ccccc21 (configuration not stated)
[b] O=C1C(=Cc2cccs2)CCCC1=Cc1cccs1
Query: Between the entries labelled a and b , which has a larger LC retention time value on record? Selection: enter the item's label.
Response: b

====

experiment: Agilent ZORBAX 300 SB-C18, 150 × 1 mm, 3.5 µm; A: water + 0.01% heptafluorobutyric acid; B: acetonitrile + 0.01% heptafluorobutyric acid; gradient (min/%B) 0/0 100/90; conditions: stereoisomer not certain
value kind: LC retention time (min)

compound: CN1Cc2ccccc2CC1C(=O)O (configuration not stated)
LC retention time / min: 6.42
//
compound: O=c1[nH][nH]c2c1CCCC2
LC retention time / min: 7.38
//
compound: CCCCCCCCC(N)=O
LC retention time / min: 12.4

[P] CN(c1ccccc1)c1nc(-n2ccnc2)nc(-n2ccnc2)n1
[Q] c1nc2cc3ncc[nH]c3cc2n1
Query: Field: lower recorded LC retention time (choose P or Q ) Answer = label.
Response: Q
(Q: 7.13 min, P: 11.3 min)

====

test: Agilent ZORBAX 300 SB-C18, 150 × 1 mm, 3.5 µm; A: water + 0.01% heptafluorobutyric acid; B: acetonitrile + 0.01% heptafluorobutyric acid; gradient (min/%B) 0/0 100/90; conditions: stereoisomer not certain
value kind: LC retention time (min)

Worked set:
compound: CN(C)C1C(=O)C(C(=O)NCN2CCCC2)C(=O)C2(O)C(=O)C3C(=O)c4c(O)cccc4C(C)(O)C3CC12 (stereo unspecified)
LC retention time (min): 8.91
--
compound: CCN(CC)C(=O)N1CCN(c2ccc(N)cc2)CC1
LC retention time (min): 8.72
--
compound: NC(=O)C1(N2CCCCC2)CCN(C(=O)CN2CCNCC2)CC1
LC retention time (min): 7.28

[I] c1cncc(-c2cccs2)c1
[II] Cc1ccc2cc(-c3cccs3)[nH]c2c1
[III] O=C(O)c1c2c(nc3ccccc13)CCCC2
Query: Thanks in advance: please rank these 3 entries by LC retention time, highest to lowest. Give the labels in the order specified.
Response: II, I, III
(II: 16.4 min, I: 9.08 min, III: 5.96 min)

====

test: Agilent ZORBAX 300 SB-C18, 150 × 1 mm, 3.5 µm; A: water + 0.01% heptafluorobutyric acid; B: acetonitrile + 0.01% heptafluorobutyric acid; gradient (min/%B) 0/0 100/90; conditions: stereoisomer not certain
value kind: LC retention time (min)

Known LC retention time results, listed for orientation:
compound: COc1c(C)cccc1C(=O)NN
result: 8.52
--
compound: Cc1cccc2c1N(C)C(=O)C2=O
result: 10.1
--
compound: c1cn[nH]c1
result: 6.84

[P] CC(=O)NC(Cc1c[nH]c2ccccc12)C(N)=O (centres undefined)
[Q] Cc1ccc(-c2cnc3ccccc3n2)c(C)c1
Query: Please tell me which of the two, P or Q , has the higher reported LC retention time value. Answer format: the label of the selected item.
Response: Q

[I] CN(C)c1ccc(C=NNC(N)=S)cc1
[II] C#CC(C)(C)N
Query: // select label with min value of measured LC retention time from [ I , II ] Select an item and report its label.
Response: II

[1] c1cncc(-c2nc3ccccc3[nH]2)c1
[2] Cc1[nH]c(C)c(C(=O)Nc2ccccc2)c1C
Query: Of 1 versus 2 , which is the one with smaller reported LC retention time? State your choice using its label.
Response: 1
(1: 8.19 min, 2: 11.9 min)

[P] CC(C)CCCC(C)N (centres undefined)
[Q] O=C(O)CCNc1n[nH]c(=O)[nH]c1=O
[R] CCCCCCCCCCCCCCCCCCNC
[S] Cc1nnc(N)[nH]c1=O
Query: # rank_down: sort by LC retention time, max first Use the labels to give the ranking in the order requested.
Response: R, P, Q, S

[1] Cc1ccc2[nH]c(-c3cc[n+](C)cc3)cc2c1
[2] COc1ccc(C(=O)C=Cc2ccccc2)cc1
Query: Lower value for measured LC retention time? Options: 1 , 2 // return label of chosen record
Response: 1

[a] O=c1[nH]c2ccccc2[nH]c1=S
[b] OC(Cn1cccc1)c1ccccc1 (centres undefined)
[c] O=CN1CCN(C=O)CC1
[d] Cc1cccc(C(=O)N2CCc3c([nH]c4ccccc34)C2c2ccccc2)c1 (centres undefined)
Query: Exam item: list the entries in increasing order of LC retention time. Give the labels in the order requested.
Response: c, a, b, d

[P] c1coc(C2NCCc3ccccc32)c1 (centres undefined)
[Q] O=C(NC(Cc1ccccc1)C(=O)NCc1ccco1)c1ccccc1 (centres undefined)
Query: // task: argmin of LC retention time over [ P , Q ] Your answer should be the label attached to the chosen record.
Response: P

[P] N=C(N)N=Nc1ccc(O)cc1
[Q] Cc1nc2c(ccc3ccccc32)c(C)c1C
[R] CCCCCCCCN(CCCCCCCC)CCCCCCCC
Query: I would appreciate it if you could sort these 3 compounds by LC retention time, starting from the smallest number. Put the labels in the requested order and write them down.
Response: P, Q, R
(P: 7.38 min, Q: 10.9 min, R: 19.5 min)
